Assay: In vivo oral pharmacokinetic study in SD rats
Set-up: species or system Sprague-Dawley rats
Conditions: Sprague-Dawley, rat, po, MSKE 143 mg/kg (20 mg/kg PGG and 0.13 mg/kg MG), blood, read-out: AUC0–24h
quantity_kind: AUC(0-t) (µM·h)
Numbers only, in µM·h.

Prompt line: Which measured AUC(0-t) value corresponds to COC(=O)c1cc(O)c(O)c(O)c1 [MG, methyl gallate] ?
Response line: 3.57

---

Assay: Caco-2 transepithelial transport experiment
Format: in vitro ADME, human
Settings: human, Caco-2, pH 6, individual compound 20 μM; Papp BA/Papp AB; read-out: Efflux Ratios
quantity_kind: efflux ratio at 240 min, 20 µM
Numbers only.

Prompt line: Which measured efflux ratio at 240 min, 20 µM value corresponds to COC(=O)c1cc(O)c(O)c(O)c1 [MG, methyl gallate] ?
Response line: 0.52
